All values here come from paper PMC5093981.

system: PfRuvB3; test: PfRuvB3 unwinding activity: requirement of co-factors and effects of salt/EDTA; type: biochemical, Plasmodium falciparum; conditions: 2 mM divalent cation salt in place of MgCl2; standard reaction = 35; 1 μg PfRuvB3
Would you mind telling me the reported Relative activity (%), PfRuvB3 unwinding activity of each entry?
Numbers only here, please. The scale is %.

Challenge: For the compound [Cl][Ni][Cl] [NiCl2] , what Relative activity (%), PfRuvB3 unwinding activity is on record?
Response given: 34

Challenge: What value of measured Relative activity (%), PfRuvB3 unwinding activity is listed for [Cl-].[Cl-].[Zn+2] [ZnCl2] ?
Response given: 30

Challenge: Which Relative activity (%), PfRuvB3 unwinding activity reading was recorded for the compound [Cl][Cu][Cl] [CuCl2] ?
Response given: 36

Challenge: I would be grateful if you could share the reported Relative activity (%), PfRuvB3 unwinding activity for O=S(=O)([O-])[O-].[Mg+2] [MgSO4] .
Response given: 37
